Recorded measurements of log P, one per entry
Assay: Partition coefficient, shake-tube method, 1-octanol and water
Format: physicochemical
Settings: 1-octanol/water

compound: O=c1[nH]c(=O)n(C2CC(O)C(COP3(=O)OCc4ccccc4O3)O2)cc1[125I] (stereo not shown) [Compound 3b]
log P: 0.652
//
compound: O=c1[nH]c(=O)n(C2CC(O)C(COP3(=O)OCc4ccccc4O3)O2)cc1[125I] (stereo not shown) [Compound 3a]
log P: 0.623
//
compound: Cc1cccc2c1OP(=O)(OCC1OC(n3cc([125I])c(=O)[nH]c3=O)CC1O)OC2 (stereo not shown) [Compound 4b]
log P: 0.846

Now consider the entry below.
### Prompt Which log P value belongs to Cc1cccc2c1OP(=O)(OCC1OC(n3cc([125I])c(=O)[nH]c3=O)CC1O)OC2 (stereo not shown) [Compound 4a] ?
### Response 0.857

----------
Test: Partition coefficient, shake-tube method, 1-octanol and water
Assay type: physicochemical
Settings: 1-octanol/water, 19° C., 125I-labeled pure diastereomers
property: Partition coefficient P avg (std dev)

compound: O=c1[nH]c(=O)n(C2CC(O)C(COP3(=O)OCc4ccccc4O3)O2)cc1[125I] (stereo not shown) [Compound 3a]
observed: 4.19 (0.12)
//
compound: Cc1cccc2c1OP(=O)(OCC1OC(n3cc([125I])c(=O)[nH]c3=O)CC1O)OC2 (stereo not shown) [Compound 4a]
observed: 7.19 (0.37)
//
compound: Cc1cccc2c1OP(=O)(OCC1OC(n3cc([125I])c(=O)[nH]c3=O)CC1O)OC2 (stereo not shown) [Compound 4b]
observed: 7.02 (0.34)

### Prompt Which Partition coefficient P avg (std dev) value belongs to O=c1[nH]c(=O)n(C2CC(O)C(COP3(=O)OCc4ccccc4O3)O2)cc1[125I] (stereo not shown) [Compound 3b] ?
### Response 4.49 (0.25)

Values from patent US9315534B2
